The origin of these recorded values is patent US20090081197A1.

system tested: T1, human melanocortin 4 receptor (human, UniProt P32245 1-332)
T1 construct: whole, on cells; cAMP assays used whole cells; also called hMC4-R; MC4-R
T1 sequence (P32245 whole entry): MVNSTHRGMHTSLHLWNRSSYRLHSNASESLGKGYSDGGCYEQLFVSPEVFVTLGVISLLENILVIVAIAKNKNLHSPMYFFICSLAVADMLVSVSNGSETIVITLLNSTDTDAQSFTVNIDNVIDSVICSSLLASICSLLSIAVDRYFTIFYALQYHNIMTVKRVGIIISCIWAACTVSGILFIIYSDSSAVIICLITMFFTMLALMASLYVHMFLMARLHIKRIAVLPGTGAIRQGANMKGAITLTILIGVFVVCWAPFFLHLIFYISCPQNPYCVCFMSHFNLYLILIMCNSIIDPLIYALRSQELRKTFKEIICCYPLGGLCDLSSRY
run description: radioligand competition, [I125]-NDP-α-MSH, hMC4-R membranes
Positions of bridges follow the written chain, without caps; N, C: chain ends. Non-standard residues stand in square brackets, D forms with d.
parameter measured: pKi
Give only the number. pKi is defined as minus log10 of concentration in molar units.

State the recorded pKi for this entry: Ac-DH[dF]RWK-NHEt (lactam 1-6, also called Compound No. 40) [Ac-cyclo(-Asp-His-D-Phe-Arg-Trp-Lys)-NH-CH2-CH3]
8.22
